Target: His6x-eIF4E (Saccharomyces cerevisiae)
Sequence: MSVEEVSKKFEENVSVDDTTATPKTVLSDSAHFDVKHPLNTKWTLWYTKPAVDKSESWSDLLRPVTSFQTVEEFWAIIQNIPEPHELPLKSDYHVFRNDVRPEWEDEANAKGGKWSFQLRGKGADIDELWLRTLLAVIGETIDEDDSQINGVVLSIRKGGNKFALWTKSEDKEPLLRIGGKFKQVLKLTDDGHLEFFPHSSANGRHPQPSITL
Experiment: EMSA
Conditions: 5' m7GpppG cap (Vaccinia Capping System); Buffer A: 10 mM sodium phosphate pH 7.5, 100 mM NaCl, 2.5 mM MgCl2, 1 mM DTT, 0.05% NP40; MST at 25 C (proteins for capped RNA MST RED-tris-NTA labeled in …)
Value type: Kd (nM)

sequence_text="GGGAACAAAAGCUGGUAAUCAAGAAUUACAAGAAACAAAAAUUCAAGUAAAUAACAGAUAAUAC [capped SSA1 5'UTR RNA, 64 nt]" quantity_unit=nM measured_value=275
